- Test system: Aβ1-40, Aβ1-42, τ, α-Syn aggregates
- PROTOCOL SUMMARY: In vitro selectivity / binding profile across aggregates (potential use: targeting of)
- CONDITIONS USED: Table 1
OBSERVABLE: Potential Use: Targeting of

{"SMILES STRUCTURE": "CN(C)c1ccc(-c2csc(-c3nc(-c4ccc(O)cc4)cs3)n2)cc1", "ENDPOINT VALUE": "Aβ"}

* * *

- System: Aβ1-40, Aβ1-42, τ, α-Syn aggregates
- PROTOCOL SUMMARY: In vitro selectivity / binding profile across aggregates (potential use: targeting of)
- CONDITIONS USED: Table 2
OBSERVABLE: Potential Use: Targeting of (in vitro selectivity)

Illustrative cases are given below, each with its answer.
{"SMILES STRUCTURE": "Oc1cc(-c2csc(-c3nc(-c4ccc5c(c4)OCO5)cs3)n2)ccc1OCCOCCF", "ENDPOINT VALUE": "PAN"}
{"SMILES STRUCTURE": "CN(C)c1ccc(-c2csc(-c3nc(-c4ccc(OCCOCCF)cc4)cs3)n2)cc1", "ENDPOINT VALUE": "Aβ"}
{"SMILES STRUCTURE": "Oc1cc(-c2csc(-c3nc(-c4ccc5c(c4)OCO5)cs3)n2)ccc1OCCF", "ENDPOINT VALUE": "PAN"}
{"SMILES STRUCTURE": "CN(C)c1ccc(-c2csc(-c3nc(-c4ccc(OCF)cc4)cs3)n2)cc1", "ENDPOINT VALUE": "Aβ"}
{"SMILES STRUCTURE": "FCOc1ccc(-c2csc(-c3nc(-c4ccc5c(c4)OCO5)cs3)n2)cc1", "ENDPOINT VALUE": "α-syn"}

input: Entry under review: FCCOc1ccc(-c2csc(-c3nc(-c4ccc5c(c4)OCO5)cs3)n2)cc1 . Reported Potential Use: Targeting of (in vitro selectivity)?
output: α-syn

input: Which Potential Use: Targeting of (in vitro selectivity) reading was recorded for the molecule FCCOCCOCCOc1ccc(-c2csc(-c3nc(-c4ccc5c(c4)OCO5)cs3)n2)cc1 ?
output: α-syn

input: Fill blank: measured Potential Use: Targeting of (in vitro selectivity) of the molecule CN(C)c1ccc(-c2csc(-c3nc(-c4ccc(F)nc4)cs3)n2)cc1 is ____.
output: Aβ

input: Entry FCCOCCOc1ccc(-c2csc(-c3nc(-c4ccc5c(c4)OCO5)cs3)n2)cc1 has what Potential Use: Targeting of (in vitro selectivity)?
output: α-syn

input: Fill in: Potential Use: Targeting of (in vitro selectivity) of COc1sc(-c2csc(-c3nc(-c4ccc5c(c4)OCO5)cs3)n2)cc1F is ___
output: PAN

input: Looking for the measured Potential Use: Targeting of (in vitro selectivity) of Fc1ccc(-c2cc(-c3csc(-c4nc(-c5ccc6c(c5)OCO6)cs4)n3)on2)cc1 , can you help?
output: α-syn

input: What measured Potential Use: Targeting of (in vitro selectivity) goes with Oc1ccc(-c2csc(-c3nc(-c4ccc(OCCOCCF)c(O)c4)cs3)n2)cc1O ?
output: PAN

input: Bench note: what Potential Use: Targeting of (in vitro selectivity) did CN(C)c1ccc(-c2csc(-c3nc(-c4ccc(O)nc4)cs3)n2)cc1 show?
output: Aβ

input: Can you share its Potential Use: Targeting of (in vitro selectivity)? I mean this molecule: CN(C)c1ccc(-c2csc(-c3nc(-c4ccc(NCCOCCOCCF)cc4)cs3)n2)cc1
output: Aβ

input: Return reported Potential Use: Targeting of (in vitro selectivity); argument: Nc1ccc(-c2csc(-c3nc(-c4ccc(NCCOCCOCCF)cc4)cs3)n2)cc1
output: Aβ
